experimental protocol: qHTS of pediatric cancer cell lines to identify multiple opportunities for drug repurposing: Primary screen for DAOY cells (AID 1347090); also: nearly all actives have a fitted effect of over 55% in size
measurement conditions: DAOY medulloblastoma viability, CellTiter-Glo luminescence, 48 h; series mostly up to 46 µM
Results filed as inconclusive are left out. Calls of active or inactive are those of the source. Calls follow the shape of the dose curve; as a rule, active = well fitted cell-killing curve with a large enough effect; inconclusive = small, poorly fitted or top-dose-only effect; inactive = flat fitted curve, though single readings scatter.
Please answer using one outcome listed in yes for active, no for inactive

compound | class name
CCN(CC)CC(=O)OCC(=O)[C@@]1(O)CC[C@H]2[C@@H]3CCC4=CC(=O)CC[C@]4(C)[C@H]3[C@@H](O)C[C@@]21C | no

Inquiry: Would you mind telling me which call this test gave `Cc1nc(N)nc(N)c1-c1ccc(Cl)c(Cl)c1` ?
Reply text: yes

Inquiry: Moving on to the next compound: CC(=O)OCC(=O)[C@@]1(O)CCC2C3CCC4=CC(=O)CC[C@]4(C)C3[C@@H](O)C[C@@]21C (stereo partly drawn)
Reply text: no

Inquiry: Moving on to the next compound: `CC(C)OP(=O)(CP(=O)(OC(C)C)OC(C)C)OC(C)C`
Reply text: no

Inquiry: Moving on to the next compound: `CN1CCC(Nc2ncc3ncnc(Nc4ccc(F)c(Cl)c4)c3n2)CC1`
Reply text: no

Inquiry: Moving on to the next compound: `OCc1c[nH]c2ccccc12`
Reply text: no

Inquiry: Moving on to the next compound: `CO/N=C(/C(=O)N[C@@H]1C(=O)N2C(C(=O)OCOC(=O)C(C)(C)C)=C(C)CS[C@H]12)c1csc(N)n1`
Reply text: no

Inquiry: Moving on to the next compound: `O=C(O)Cn1c(=O)n(Cc2ccc(Br)cc2F)c(=O)c2ccc(Cl)cc21`
Reply text: no

Inquiry: Moving on to the next compound: `Cc1onc(-c2ccccc2)c1C(=O)Cl`
Reply text: no

Inquiry: Moving on to the next compound: O=P(O)(O)OCC(O)CO (stereo not drawn)
Reply text: no

Inquiry: Moving on to the next compound: CN(CC1(C)CCCO1)S(=O)(=O)c1ccc(Cl)c(S(N)(=O)=O)c1 (stereo not drawn)
Reply text: no

Inquiry: Moving on to the next compound: `Cc1cccc(C)c1NC(=O)c1cc(S(N)(=O)=O)c(Cl)cc1O`
Reply text: no

Inquiry: Moving on to the next compound: `O=C(O)CCCC[C@@H]1SC[C@@H]2NC(=O)N[C@@H]21`
Reply text: no

Inquiry: Moving on to the next compound: CCCN(CCC)C(=O)C(CCC(=O)OCCCN1CCN(CCOC(=O)Cc2c(C)n(C(=O)c3ccc(Cl)cc3)c3ccc(OC)cc23)CC1)NC(=O)c1ccccc1 (stereo not drawn)
Reply text: no

Inquiry: Moving on to the next compound: `COC(=O)c1cc(Cl)ccc1NS(=O)(=O)C(F)(F)F`
Reply text: no

Inquiry: Moving on to the next compound: `Nc1ncnc2nc[nH]c12`
Reply text: no

Inquiry: Moving on to the next compound: `CN1CCN(N)CC1`
Reply text: no

Inquiry: Moving on to the next compound: `O=C(O)Cn1cnnn1`
Reply text: no

Inquiry: Moving on to the next compound: `CC(=O)c1cc2ccccc2s1`
Reply text: no

Inquiry: Moving on to the next compound: `O=C(OCC1(COC(=O)c2cccnc2)CCCC(COC(=O)c2cccnc2)(COC(=O)c2cccnc2)C1O)c1cccnc1`
Reply text: no

Inquiry: Moving on to the next compound: `Cc1onc(-c2c(Cl)cccc2Cl)c1C(=O)Cl`
Reply text: no

Inquiry: Moving on to the next compound: `Cc1cc(=O)oc2cc(O[C@@H]3SC[C@@H](O)[C@H](O)[C@H]3O)ccc12`
Reply text: no

Inquiry: Moving on to the next compound: CCN1CCCC1CN (stereo not drawn)
Reply text: no
